experiment: Selectivity ratio of IC50 for C-terminal full length histidine-tagged caspase-3 to IC50 for caspase-2 (amino acids 170 to 452) (unknowm origin)
Non-standard residues stand in square brackets, D forms with d. Residues, ends and D or L forms follow the SMILES beside them. ξ: configuration not given here. *: point of attachment. Pro(3S-CH2tBu) = CC(C)(C)C[C@H]1CCN[C@@H]1C(=O)O; Pro(3R-cHex) = O=C(O)[C@H]1NCC[C@@H]1C1CCCCC1; Aspartal(hemiacetal) = O=C1C[C@H](N*)C(O)O1; Tiq1c(1S) = O=C(O)[C@H]1NCCc2ccccc21; ξDisc = O=C(O)C1NCc2ccccc21; Pip = O=C(O)[C@@H]1CCCCN1

| compound | Ratio IC50 |
| --- | --- |
| CC(=O)N[C@H](C(=O)N[C@@H](CC(=O)O)C(=O)N[C@H](C(=O)N1CCC[C@H](OC(C)C)[C@H]1C(=O)N[C@H]1CC(=O)OC1O)C(C)C)C(C)C (stereo partly drawn) | 1.5 |
| CC(=O)N[C@H](C(=O)N[C@@H](CC(=O)O)C(=O)N[C@H](C(=O)N1CCC[C@H]1C(=O)N[C@H]1CC(=O)OC1O)C(C)C)C(C)C (stereo partly drawn) (Ac-VDVP-{Aspartal(hemiacetal)}) | 0.3 |
| CC(=O)N[C@H](C(=O)N[C@@H](CC(=O)O)C(=O)N[C@H](C(=O)N1CC[C@H](CC(C)(C)C)[C@H]1C(=O)N[C@H]1CC(=O)OC1O)C(C)C)C(C)C (stereo partly drawn) (Ac-VDV[Pro(3S-CH2tBu)]-{Aspartal(hemiacetal)}) | 60 |
| CC(=O)N[C@H](C(=O)N[C@@H](CC(=O)O)C(=O)N[C@H](C(=O)N[C@@H](C)C(=O)N[C@H]1CC(=O)OC1O)C(C)C)C(C)C (stereo partly drawn) (Ac-VDVA-{Aspartal(hemiacetal)}) | 0.3 |
| CC(=O)N[C@H](C(=O)N[C@@H](CC(=O)O)C(=O)N[C@H](C(=O)N1CCc2cc(Br)ccc2C1C(=O)N[C@H]1CC(=O)OC1O)C(C)C)C(C)C (stereo partly drawn) | 6 |
| CC(=O)N[C@H](C(=O)N[C@@H](CC(=O)O)C(=O)N[C@H](C(=O)N1CC[C@H](c2ccc(C)cc2)[C@H]1C(=O)N[C@H]1CC(=O)OC1O)C(C)C)C(C)C (stereo partly drawn) | 1.7 |
| CC(=O)N[C@H](C(=O)N[C@@H](CC(=O)O)C(=O)N[C@H](C(=O)N1CC[C@H](C2CCCCC2)[C@H]1C(=O)N[C@H]1CC(=O)OC1O)C(C)C)C(C)C (stereo partly drawn) (Ac-VDV[Pro(3R-cHex)]-{Aspartal(hemiacetal)}) | 30 |
| CC(=O)N[C@H](C(=O)N[C@@H](CC(=O)O)C(=O)N[C@H](C(=O)N1CC[C@H](Oc2ncccn2)[C@H]1C(=O)N[C@H]1CC(=O)OC1O)C(C)C)C(C)C (stereo partly drawn) | 45 |
| CC(=O)N[C@H](C(=O)N[C@@H](CC(=O)O)C(=O)N[C@H](C(=O)N1CCc2ccccc2[C@H]1C(=O)N[C@H]1CC(=O)OC1O)C(C)C)C(C)C (stereo partly drawn) (Ac-VDV[Tiq1c(1S)]-{Aspartal(hemiacetal)}) | 11 |
| CC(=O)N[C@H](C(=O)N[C@@H](CC(=O)O)C(=O)N[C@H](C(=O)N1Cc2ccccc2C1C(=O)N[C@H]1CC(=O)OC1O)C(C)C)C(C)C (stereo partly drawn) (Ac-VDV[ξDisc]-{Aspartal(hemiacetal)}) | 2 |
| CC(=O)N[C@H](C(=O)N[C@@H](CC(=O)O)C(=O)N[C@H](C(=O)N1CCCC[C@H]1C(=O)N[C@H]1CC(=O)OC1O)C(C)C)C(C)C (stereo partly drawn) (Ac-VDV[Pip]-{Aspartal(hemiacetal)}) | 0.3 |
| COc1cc2c(cc1OC)C(C(=O)N[C@H]1CC(=O)OC1O)N(C(=O)[C@@H](NC(=O)[C@H](CC(=O)O)NC(=O)[C@@H](NC(C)=O)C(C)C)C(C)C)CC2 (stereo partly drawn) | 4 |
| CC(=O)N[C@H](C(=O)N[C@@H](CC(=O)O)C(=O)N[C@H](C(=O)N1CCc2ccc(Br)cc2C1C(=O)N[C@H]1CC(=O)OC1O)C(C)C)C(C)C (stereo partly drawn) | 1.8 |
